Sourced from patent US20260069689A1

system: SARS-COV-2 RBD extracellular domain expressed with a C-terminal mouse IgG2a Fc (SARS-CoV-2)
assay: Biacore SPR, mAb captured on anti-hFc, 25 C
Binary call on kon: criterion met from 400000 M⁻¹ s⁻¹ upward, criterion not met beneath that.

binder: mAb15157 (antibody, V domains shown) VH: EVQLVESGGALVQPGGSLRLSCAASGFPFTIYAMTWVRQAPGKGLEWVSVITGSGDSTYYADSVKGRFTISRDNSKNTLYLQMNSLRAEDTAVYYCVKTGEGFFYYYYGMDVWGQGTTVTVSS VL: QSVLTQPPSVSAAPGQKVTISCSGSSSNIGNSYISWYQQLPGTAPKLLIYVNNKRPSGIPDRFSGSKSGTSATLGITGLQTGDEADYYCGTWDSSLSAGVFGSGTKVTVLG
class.name: criterion not met
--
binder: mAb14257 (antibody, V domains shown) VH: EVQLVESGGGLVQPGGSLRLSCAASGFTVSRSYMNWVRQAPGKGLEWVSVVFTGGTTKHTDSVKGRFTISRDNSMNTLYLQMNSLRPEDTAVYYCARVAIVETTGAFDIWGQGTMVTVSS VL: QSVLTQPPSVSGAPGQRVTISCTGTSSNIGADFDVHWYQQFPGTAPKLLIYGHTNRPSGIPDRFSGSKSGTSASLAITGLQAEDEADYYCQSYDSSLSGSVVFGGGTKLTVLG
class.name: criterion met
--
binder: mAb15151 (antibody, V domains shown) VH: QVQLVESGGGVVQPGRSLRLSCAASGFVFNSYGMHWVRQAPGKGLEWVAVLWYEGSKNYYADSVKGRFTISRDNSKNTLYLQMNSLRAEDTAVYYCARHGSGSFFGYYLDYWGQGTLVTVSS VL: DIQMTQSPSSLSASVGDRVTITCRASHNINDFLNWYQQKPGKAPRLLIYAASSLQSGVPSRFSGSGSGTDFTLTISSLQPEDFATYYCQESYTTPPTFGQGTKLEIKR
class.name: criterion met
--
binder: mAb14312 (antibody, V domains shown) VH: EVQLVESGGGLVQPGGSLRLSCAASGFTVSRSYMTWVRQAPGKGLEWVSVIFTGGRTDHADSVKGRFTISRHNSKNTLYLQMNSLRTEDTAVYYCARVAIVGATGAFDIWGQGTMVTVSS VL: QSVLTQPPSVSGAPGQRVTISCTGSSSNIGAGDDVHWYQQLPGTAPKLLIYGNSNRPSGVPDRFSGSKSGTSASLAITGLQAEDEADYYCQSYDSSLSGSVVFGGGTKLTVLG
class.name: criterion met
--
binder: mAb15165 (antibody, V domains shown) VH: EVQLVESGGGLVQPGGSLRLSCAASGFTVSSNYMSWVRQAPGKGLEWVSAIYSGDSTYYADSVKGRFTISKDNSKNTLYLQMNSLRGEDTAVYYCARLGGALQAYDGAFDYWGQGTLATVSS VL: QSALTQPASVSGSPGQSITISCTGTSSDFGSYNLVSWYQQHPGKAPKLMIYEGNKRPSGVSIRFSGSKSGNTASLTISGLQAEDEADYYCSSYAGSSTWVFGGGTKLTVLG
class.name: criterion not met
